Molecular target: Neuromedin-K receptor (Rattus norvegicus, UniProt P16177)
Sequence (P16177 whole entry): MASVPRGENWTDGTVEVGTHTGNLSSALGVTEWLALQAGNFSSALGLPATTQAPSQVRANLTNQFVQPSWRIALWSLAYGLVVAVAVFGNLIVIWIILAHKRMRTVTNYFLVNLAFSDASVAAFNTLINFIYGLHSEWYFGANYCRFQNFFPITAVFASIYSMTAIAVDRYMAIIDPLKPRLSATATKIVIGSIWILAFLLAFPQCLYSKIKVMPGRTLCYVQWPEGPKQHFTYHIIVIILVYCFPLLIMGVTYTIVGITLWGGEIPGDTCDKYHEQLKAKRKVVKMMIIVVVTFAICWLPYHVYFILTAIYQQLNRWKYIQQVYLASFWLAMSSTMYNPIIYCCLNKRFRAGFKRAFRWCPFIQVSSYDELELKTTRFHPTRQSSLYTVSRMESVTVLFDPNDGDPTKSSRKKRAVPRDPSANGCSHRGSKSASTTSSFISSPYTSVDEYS
Test: Concentration required to inhibit the specific binding of [125I]BH-ELE to Neurokinin-3 (NK-3) receptor in rat brain synaptosomes
Non-standard residues stand in square brackets, D forms with d. Residues, ends and D or L forms follow the SMILES beside them. Gly(9-fluorenyl) = N[C@H](C(=O)O)C1c2ccccc2-c2ccccc21
Below, each entry is listed with its recorded pIC50.
The value called pIC50 is obtained by taking minus log10 of the concentration in mol/L.

Compound: CSCC[C@H](NC(=O)[C@H](CC(C)C)NC(=O)[C@@H]1CCCN1C(=O)[C@@H](NC(=O)[C@H](Cc1ccccc1)NC(=O)[C@H](CCC(N)=O)NC(=O)[C@H](CCC(N)=O)NC(=O)[C@@H]1CCCN1C(=O)[C@H](CCCCN)NC(=O)[C@@H]1CCCN1C(=O)[C@@H](N)CCCN=C(N)N)C1c2ccccc2-c2ccccc21)C(N)=O (H-RPKPQQF[Gly(9-fluorenyl)]PLM-NH2)
pIC50: 4.82
--
Compound: CSCC[C@H](NC(=O)[C@H](CC(C)C)NC(=O)CNC(=O)[C@H](Cc1ccccc1)NC(=O)[C@H](CCSC)NC(=O)[C@H](CCC(N)=O)NC(=O)[C@H](CCC(N)=O)NC(=O)[C@@H]1CCCN1C(=O)[C@H](CCCCN)NC(=O)[C@@H]1CCCN1C(=O)[C@@H](N)CCCNC(=N)N)C(N)=O
pIC50: 5.13
--
Compound: CSCC[C@H](NC(=O)[C@H](CC(C)C)NC(=O)CNC(=O)[C@@H](NC(=O)[C@H](Cc1ccccc1)NC(=O)[C@H](CCC(N)=O)NC(=O)[C@H](CCC(N)=O)NC(=O)[C@@H]1CCCN1C(=O)[C@H](CCCCN)NC(=O)[C@@H]1CCCN1C(=O)[C@@H](N)CCCNC(=N)N)C(C)(C)SC)C(N)=O
pIC50: 6.77
--
Compound: CSCC[C@H](NC(=O)[C@H](CC(C)C)NC(=O)CNC(=O)[C@H](Cc1ccccc1)NC(=O)[C@@H](NC(=O)[C@H](CCC(N)=O)NC(=O)[C@H](CCC(N)=O)NC(=O)[C@@H]1CCCN1C(=O)[C@H](CCCCN)NC(=O)[C@@H]1CCCN1C(=O)[C@@H](N)CCCNC(=N)N)C(c1ccccc1)c1ccccc1)C(N)=O
pIC50: 4.77
--
Compound: CSCC[C@H](NC(=O)[C@H](CC(C)C)NC(=O)CNC(=O)[C@H](Cc1ccccc1)NC(=O)[C@@H](NC(=O)[C@H](CCC(N)=O)NC(=O)[C@H](CCC(N)=O)NC(=O)[C@@H]1CCCN1C(=O)[C@H](CCCCN)NC(=O)[C@@H]1CCCN1C(=O)[C@@H](N)CCCN=C(N)N)[C@@H]1CCc2ccccc21)C(N)=O
pIC50: 5.68

[ask] Tell me the measured pIC50 of `CSCC[C@H](NC(=O)[C@H](CC(C)C)NC(=O)CNC(=O)[C@H](Cc1ccccc1)NC(=O)[C@@H](NC(=O)[C@H](CCC(N)=O)NC(=O)[C@H](CCC(N)=O)NC(=O)[C@@H]1CCCN1C(=O)[C@H](CCCCN)NC(=O)[C@@H]1CCCN1C(=O)[C@@H](N)CCCN=C(N)N)C1c2ccccc2-c2ccccc21)C(N)=O` , please.
[reply] 5.51

[ask] Suppose we examine the compound `CSCC[C@H](NC(=O)[C@H](CC(C)C)NC(=O)CNC(=O)[C@H](Cc1ccccc1)NC(=O)/C(=C\c1ccccc1)NC(=O)[C@H](CCC(N)=O)NC(=O)[C@H](CCC(N)=O)NC(=O)[C@@H]1CCCN1C(=O)[C@H](CCCCN)NC(=O)[C@@H]1CCCN1C(=O)[C@@H](N)CCCN=C(N)N)C(N)=O` ; what pIC50 value has been reported?
[reply] 4.93

Entry source: ChEMBL document CHEMBL1127523
